Target: Adenosine receptor A1 (Homo sapiens)
Measurement protocol: Displacement of [3H]CCPA from recombinant human adenosine receptor A1 expressed in CHO cell membranes at 1 uM
Cut-off 30% on inhibition, inclusive. At or above means y; below means n.

Take a look at these entries with their results.
CCN(CC)CCOc1ccc(CCN2CCCn3c2nc2c3c(=O)n(C)c(=O)n2C)cc1 : n
CCCCn1c(=O)c2c(nc3n2CCCN3CCc2ccc(OCCN(CC)CC)cc2)n(CCCC)c1=O : n
CCCCn1c(=O)c2c(nc3n2CCCN3c2ccc(OCCN3CCCCC3)cc2)n(CCCC)c1=O : y
CCCCn1c(=O)c2c(nc3n2CCCN3c2ccc(OCCN3CCCC3)cc2)n(CCCC)c1=O : y
CCCn1c(=O)c2c(nc3n2CCCN3c2ccc(OCCN3CCCC3)cc2)n(CCC)c1=O : n

Is the recorded value of inhibition equal to or greater than 30% for this molecule? CCn1c(=O)c2c(nc3n2CCCN3CCc2ccc(O)cc2)n(CC)c1=O
n

Follow-up entry: CCCCn1c(=O)c2c(nc3n2CCCN3c2ccc(OCCN(C)C)cc2)n(CCCC)c1=O
y

###

Target: Adenosine receptor A2a (Homo sapiens, UniProt P29274)
Sequence (P29274 whole entry): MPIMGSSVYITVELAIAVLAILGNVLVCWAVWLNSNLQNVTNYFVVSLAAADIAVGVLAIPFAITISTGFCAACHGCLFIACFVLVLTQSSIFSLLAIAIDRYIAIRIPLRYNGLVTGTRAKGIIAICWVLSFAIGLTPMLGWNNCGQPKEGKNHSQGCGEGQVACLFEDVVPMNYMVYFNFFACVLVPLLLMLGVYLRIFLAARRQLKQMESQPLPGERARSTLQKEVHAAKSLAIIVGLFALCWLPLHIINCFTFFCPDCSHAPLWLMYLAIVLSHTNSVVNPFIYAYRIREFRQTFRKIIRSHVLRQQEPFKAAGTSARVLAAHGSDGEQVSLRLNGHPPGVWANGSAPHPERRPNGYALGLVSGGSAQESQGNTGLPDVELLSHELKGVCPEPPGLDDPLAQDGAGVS
Measurement protocol: Displacement of [3H]MSX2 from recombinant human adenosine receptor A2a expressed in CHO cell membranes
Would you kindly list Ki for each of these compounds?
Give bare numbers, in nM.

CCn1c(=O)c2c(nc3n2CCCN3CCc2ccc(O)cc2)n(CC)c1=O : 2180
CCN(CC)CCOc1ccc(CCN2CCCn3c2nc2c3c(=O)n(C)c(=O)n2C)cc1 : 559
CCCCn1c(=O)c2c(nc3n2CCCN3c2ccc(OCCN(C)C)cc2)n(CCCC)c1=O : 1030

Please report Ki for every entry that follows.
1. CCCCn1c(=O)c2c(nc3n2CCCN3c2ccc(OCCN(CC)CC)cc2)n(CCCC)c1=O
2. CCCn1c(=O)c2c(nc3n2CCCN3c2ccc(OCCN3CCCC3)cc2)n(CCC)c1=O
3. CCCCn1c(=O)c2c(nc3n2CCCN3c2ccc(OCCN3CCCC3)cc2)n(CCCC)c1=O
4. CCCCn1c(=O)c2c(nc3n2CCCN3c2ccc(OCCN3CCCCC3)cc2)n(CCCC)c1=O
5. CCCCn1c(=O)c2c(nc3n2CCCN3CCc2ccc(OCCN(CC)CC)cc2)n(CCCC)c1=O

1: 1010; 2: 2380; 3: 666; 4: 921; 5: 546

###

Would you kindly list inhibition for each of these compounds?
Target: Adenosine receptor A3 (Homo sapiens) (UniProt P0DMS8)
Sequence (P0DMS8 whole entry): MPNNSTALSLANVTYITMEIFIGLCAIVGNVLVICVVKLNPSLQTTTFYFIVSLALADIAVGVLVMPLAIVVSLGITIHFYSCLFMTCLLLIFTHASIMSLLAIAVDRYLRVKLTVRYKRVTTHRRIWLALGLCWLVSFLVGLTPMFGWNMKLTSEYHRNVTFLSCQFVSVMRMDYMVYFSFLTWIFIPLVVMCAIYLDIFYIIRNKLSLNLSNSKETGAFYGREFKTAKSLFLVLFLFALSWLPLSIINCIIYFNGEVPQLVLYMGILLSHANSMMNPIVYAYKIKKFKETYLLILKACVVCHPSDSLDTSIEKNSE
Measurement protocol: Displacement of [3H]PSB11 from recombinant human adenosine receptor A3 expressed in CHO cell membranes at 1 uM
One number for each entry, in %.

Example results:
CN(C)CCOc1ccc(CCN2CCn3c(nc4c3c(=O)n(C)c(=O)n4C)C2)cc1 : 6
CN(C)CCOc1ccc(N2CCCn3c2nc2c3c(=O)n(C)c(=O)n2C)cc1 : -1
CN(C)CCOc1ccc(CCN2CCCn3c2nc2c3c(=O)n(C)c(=O)n2C)cc1 : -5

Please report inhibition for every entry that follows.
1. Cn1c(=O)c2c(nc3n2CCCN3c2ccc(OCCN3CCCCC3)cc2)n(C)c1=O
2. CCCn1c(=O)c2c(nc3n2CCCN3c2ccc(OCCN(C)C)cc2)n(CCC)c1=O
3. Cn1c(=O)c2c(nc3n2CCN(CCc2ccc(O)cc2)C3)n(C)c1=O
4. Cn1c(=O)c2c(nc3n2CCCN3c2ccc(OCCN3CCCC3)cc2)n(C)c1=O
5. CCn1c(=O)c2c(nc3n2CCCN3c2ccc(OCCN(C)C)cc2)n(CC)c1=O
6. CCCn1c(=O)c2c(nc3n2CCCN3CCc2ccc(O)cc2)n(CCC)c1=O

1. 6
2. 17
3. 3
4. 0
5. -1
6. 24

Given Cn1c(=O)c2c(nc3n2CCCN3CCc2ccc(OCCN3CCCC3)cc2)n(C)c1=O , state its recorded inhibition.
3
